molecular target: M-phase inducer phosphatase 2 (Homo sapiens) + Cyclin-dependent kinase 2 (Homo sapiens) + Cyclin-A2 (Homo sapiens) (UniProt P30305+P24941+P20248); assay: primary biochemical HTRF screen for inhibition of M-phase inducer phosphatase 2 binding to cyclin-dependent kinase 2/cyclin A (AID 1259370); conditions: HTRF CDC25B-CDK2/CyclinA binding, anti-His/anti-Flag
Among all 94,000 compounds or so, about 680 (0.72%) were called active. Cut-off read from the data, not from the text of the source: active = z-score above about 3.2; inactive = the rest. The sample holds actives, similar compounds and a random draw of the others, so the mix is not that of the screen.
Outcomes: active, inactive

INSERT INTO measurements (molecule, assigned_category) VALUES
  ('O=C1C2N=NN(Cc3cccc(F)c3)C2C(=O)N1c1ccccc1 (stereo not given)', 'inactive'),
  ('COc1cccc([C@@H]2Nc3ccc(S(=O)(=O)Nc4ccccc4)cc3[C@@H]3C=CC[C@@H]32)c1', 'inactive'),
  ('Cc1nc2ncnn2c(Sc2ccc(N)cc2)c1C', 'inactive'),
  ('O=C(CSc1ccc(-c2cccs2)nn1)N1CCCc2ccccc21', 'inactive'),
  ('CC1=Nc2ccccc2-c2nnc(SCc3ccccc3F)nc2O1', 'inactive'),
  ('CCC(C)NC(=O)C1CCN(C(=O)c2sccc2-n2cccc2)CC1 (stereo not given)', 'inactive'),
  ('COC(=O)c1ccc([C@@H]2Nc3ccc(F)cc3[C@@H]3C=CC[C@@H]32)cc1', 'inactive'),
  ('CCOc1cccc2c1N[C@@H](c1ccc(C(=O)O)cc1)[C@H]1CC=C[C@@H]21', 'active'),
  ('Cc1ccc(N(CC(=O)NC(C(C)C)C(C)C)S(C)(=O)=O)cc1Cl', 'inactive'),
  ('COc1ccc(C2=NS(=O)(=O)N(C)C(C(=O)N3CCN(C(=O)c4ccco4)CC3)=C2)cc1', 'inactive');

----------
The following compounds are listed with their measured z-score values.
molecular target: M-phase inducer phosphatase 2 (Homo sapiens) + Cyclin-dependent kinase 2 (Homo sapiens) + Cyclin-A2 (Homo sapiens) (UniProt P30305+P24941+P20248); experiment: primary biochemical HTRF screen for inhibition of M-phase inducer phosphatase 2 binding to cyclin-dependent kinase 2/cyclin A (AID 1259370); conditions: HTRF CDC25B-CDK2/CyclinA binding, anti-His/anti-Flag; hits give high values
The whole screen tested about 94,000 compounds, of which about 680 (0.72%) were called active. This is one part of a sample in which actives are shown more often than they occur.
result-type: z-score

INSERT INTO results (compound, endpoint_value) VALUES
  ('CCOC(=O)N1CCN(CC(O)COc2ccc(OC(F)(F)F)cc2)CC1 (stereo unspecified)', '11.1 (active)'),
  ('CN1C(=O)c2ccccc2C(C(=O)Nc2ccc3c(c2)OCO3)C1c1cn(C)c2ccccc12 (stereo unspecified)', '-2.4 (inactive)'),
  ('C=CCN1C=C(OC(=O)COc2ccccc2)c2ccccc2S1(=O)=O', '-2.21 (inactive)'),
  ('COc1ccc(C(=O)Oc2ccc3c(c2)oc(=O)c2ccccc23)cc1', '-0.65 (inactive)'),
  ('Cn1c(=O)c2c(c3ccccc31)OC(=O)CC2c1ccc(Br)cc1 (stereo unspecified)', '-0.71 (inactive)'),
  ('Clc1ccc(N2CCCC2)nn1', '0.42 (inactive)'),
  ('Cc1c(C)c2cc3c4c(oc3c(C)c2oc1=O)CCCC4', '0.16 (inactive)'),
  ('CCOC(=O)C1=C(C)NC2=C(C(=O)c3ccccc32)C1c1cccc(F)c1 (stereo unspecified)', '-1.68 (inactive)'),
  ('COc1cccc(-c2cn3nc(C)sc3n2)c1', '-1.51 (inactive)'),
  ('O=C(Nc1ccc(O)c(-c2nc3ccccc3s2)c1)C(c1ccccc1)c1ccccc1', '-2.45 (inactive)'),
  ('CCOC(=O)C1=C(C)NC2=C(C(=O)c3ccccc32)C1c1ccc(OC(=O)c2ccccc2)cc1 (stereo unspecified)', '11.9 (active)');
